Exercise: for every item that follows, state its recorded IC50.
Test system: HCT-116
protocolSummary: Cytotoxicity against human HCT116 cells
Assay type: functional, cell-based
Give bare numbers, in µg/mL.

Solved entries (count: 2):
| compound | IC50, µg/mL |
| --- | --- |
| CC(C)[C@@H]1NC(=O)c2csc(n2)[C@H](C(C)C)NC(=O)c2coc(n2)[C@H](C(C)C)NC(=O)[C@H]([C@@H](C)O)NC1=O [BISTRATAMIDE I] | 9 |
| Cc1oc2nc1C(=O)N[C@@H](C(C)C)c1nc(co1)C(=O)N[C@@H](C(C)C)c1nc(cs1)C(=O)N[C@H]2C(C)C [BISTRATAMIDE G] | 5 |

Now for the compound whose IC50 we want.
# return IC50 of CC(C)[C@@H]1NC(=O)c2csc(n2)[C@H](C(C)C)NC(=O)c2csc(n2)[C@H](C(C)C)NC(=O)[C@H]2N=C1O[C@@H]2C [BISTRATAMIDE E] (system: HCT-116)
7.9
